ASSAY_SUMMARY: Plasma pharmacokinetics of ALM201 in Phase I patients (validated LC-MS/MS, Phoenix WinNonlin)
CONDITION_LABEL: human, plasma, sc, 80 mg, Tmax, median, 80 mg SC, day 1 cycle 1, n = 3; plasma LC-MS/MS
No end group written: not given here.
ASSAY_ENDPOINT: Tmax (h)
One number for each entry, in h.

Consider the sequence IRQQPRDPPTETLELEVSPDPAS [ALM201] and give its measured Tmax.
1.53

====

ASSAY_SUMMARY: Plasma pharmacokinetics of ALM201 in Phase I patients (validated LC-MS/MS, Phoenix WinNonlin)
CONDITION_LABEL: human, plasma, sc, 100 mg, Plasma concentration, geometric mean (CV%), 100 mg SC, day 18 cycle 2, 2 h after dosing, n = 1; LC-MS/MS
No end group written: not given here.
ASSAY_ENDPOINT: level at 2 h (ng/mL)
Give bare numbers, in ng/mL.

# level at 2 h lookup, item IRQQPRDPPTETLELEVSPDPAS [ALM201]
1570

src = paper PMC9276671
